Target: Bcl-xL, Q07817
Sequence (Q07817 1-209): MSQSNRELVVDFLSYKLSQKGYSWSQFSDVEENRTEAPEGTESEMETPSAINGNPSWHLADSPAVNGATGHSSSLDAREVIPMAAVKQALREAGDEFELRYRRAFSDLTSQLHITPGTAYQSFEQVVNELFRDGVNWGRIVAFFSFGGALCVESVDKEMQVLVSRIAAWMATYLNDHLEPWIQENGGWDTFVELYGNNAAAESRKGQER
Assay: peptide SPOT array, c-Myc-tagged receptor at 1 uM or 100 nM, anti-c-Myc-Cy3
Measured Attribute: SPOT signal as a fraction of Bim BH3's signal on the same receptor and array

1) NKRHRPIGIGVQGLADAFILMRYPFE [RRM1] : 0.04
2) LNLLMISVAFLRVILDQLEKLCDSLL [SLC38A8] : 0.07
3) LQETTLVANQLREAASRLKWTTNTGP [MAN2B1] : 0.06
4) PVESSWIAPELRLQLDDILPLGKDSG [DHX30] : 0.05
